system: KB cell; assay: Cytotoxicity against KB cell line; assay type: cell-based; conditions: Homo sapiens, mean ± spread, unit inferred, read-out: IC50 KB cell (Table 6)
parameter measured: IC50
Answer with the value and then the unit.

• CCc1ccc(/C=C2\CN(Cc3cn(CCNc4ccnc5cc(Cl)ccc45)nn3)C/C(=C\c3ccc(CC)cc3)C2=O)cc1 = 3700 nM

Lookup result for O=C1/C(=C/c2ccc(Cl)cc2)CN(Cc2cn(CCNc3ccnc4cc(Cl)ccc34)nn2)C/C1=C\c1ccc(Cl)cc1 ; measured IC50: 3000 nM

###

tested on: PC3 cell; test: Cytotoxicity against PC3 cell line; format: cell-based; settings: Homo sapiens, PC-3, mean ± spread, unit inferred, read-out: IC50 PC3 cell (Table 6)
parameter measured: IC50
Provide a numeric answer, followed by its unit.

Some solved entries appear below for comparison.
• O=C1/C(=C/c2ccc(Cl)cc2)CN(Cc2cn(CCCNc3ccnc4cc(Cl)ccc34)nn2)C/C1=C\c1ccc(Cl)cc1 [SR40] = 1800 nM
• O=C1/C(=C/c2ccc(F)cc2)CN(Cc2cn(CCNc3ccnc4cc(Cl)ccc34)nn2)C/C1=C\c1ccc(F)cc1 [SR16] = 2000 nM

Value of IC50 reported for the compound COc1ccc(/C=C2\CN(Cc3cn(CCCNc4ccnc5cc(Cl)ccc45)nn3)C/C(=C\c3ccc(OC)c(OC)c3)C2=O)cc1OC [SR38] is 2600 nM

IC50 reading for O=C1/C(=C/c2ccc(Cl)cc2)CN(Cc2cn(CCNc3ccnc4cc(Cl)ccc34)nn2)C/C1=C\c1ccc(Cl)cc1 [SR15] : 3100 nM

###

system: human cervical cancer cells (HeLa); test: MTT cytotoxicity assay, HeLa cells; assay type: cell-based; details: Homo sapiens; HeLa cells, MTT assay; range or bound stated in text; read-out: IC50 against HeLa cancer cell lines
parameter measured: IC50

- CCN1C/C(=C\c2ccc(C(C)C)cc2)C(=O)/C(=C/c2ccc(C(C)C)cc2)C1 [6g]: < 1 µM

Quick note, IC50 for O=C1/C(=C/c2ccc(Br)cc2)CN(S(=O)(=O)c2ccccc2)C/C1=C\c1ccc(Br)cc1 [4i] landed at 0.3 to 1.5 µM

GET /value?item= Cc1ccc(S(=O)(=O)N2C/C(=C\c3ccc(Br)cc3)C(=O)/C(=C/c3ccc(Br)cc3)C2)cc1 [3a] &field=IC50 returns 0.3 to 1.5 µM

For reference, reported IC50 for Cc1ccc(S(=O)(=O)N2C/C(=C\c3ccc(F)cc3)C(=O)/C(=C/c3ccc(F)cc3)C2)cc1 [3j] stands at 0.3 to 1.5 µM

IC50 reading for O=C1/C(=C/c2ccc(Cl)cc2)CN(S(=O)(=O)c2ccccc2)C/C1=C\c1ccc(Cl)cc1 [4e] : 0.3 to 1.5 µM

###

parameter measured: melting point (°C)
Respond with the bare value in °C.

Measured melting point of O=C1/C(=C/c2ccc(F)cc2)CN(Cc2ccccc2)C/C1=C\c1ccc(F)cc1 [5j] : 159

The recorded melting point for Cc1ccc(S(=O)(=O)N2C/C(=C\c3ccc(C(C)(C)C)cc3)C(=O)/C(=C/c3ccc(C(C)(C)C)cc3)C2)cc1 [3g] is 220

Looking up COc1ccc(/C=C2\CN(S(=O)(=O)c3ccc(C)cc3)C/C(=C\c3ccc(OC)cc3)C2=O)cc1 [3f] , I found its melting point recorded as 183

The compound listed as CCCn1cc(CN2CC(=Cc3ccc(C)cc3)C(=O)C(=Cc3ccc(C)cc3)C2)nn1 [11a] shows melting point equal to 165

Measured melting point of Cc1ccc(/C=C2\CN(Cc3ccccc3)C/C(=C\c3ccc(C)cc3)C2=O)cc1 [5a] : 170

Kindly note the recorded melting point for CCCCCn1cc(CN2CC(=Cc3ccc(C)cc3)C(=O)C(=Cc3ccc(C)cc3)C2)nn1 [11c] , which is 169

Value of melting point reported for the compound CCN1C/C(=C\c2ccc(Br)cc2)C(=O)/C(=C/c2ccc(Br)cc2)C1 [6a] is 178

Memo: CCCCn1cc(CN2CC(=Cc3ccc(CC)cc3)C(=O)C(=Cc3ccc(CC)cc3)C2)nn1 [12b] , reported melting point: 150

CCCCCn1cc(CN2CC(=Cc3ccc(C(C)C)cc3)C(=O)C(=Cc3ccc(C(C)C)cc3)C2)nn1 [13c] yielded melting point of 143

The measured values listed here are drawn from patent US9884825B2.
